Test system: MCF7
Experiment: Cytotoxicity against human MCF7 cells by SRB assay
Type: functional, cell-based
Experimental endpoint: IC50

Below: 3 compounds and their reported IC50.
Compound	Result
COc1c(O)c(C=O)c2c(O)c(-c3c(C)cc4c(C(C)C)c(OC)c(O)c(C=O)c4c3O)c(C)cc2c1C(C)C	4 µg/mL
CC1=Cc2c(c(C)cc3c2C(C)CO3)C(=O)C1=O (configuration not stated)	0.8 µg/mL
Cc1cc2c(C(C)C)ccc(C)c2cc1O	> 5 µg/mL

I'm hoping you can list IC50 for every compound here, please.
1. CC1=CC2=C(C(C)C)C(=O)CC(C)C2=C(O)C1=O (configuration not stated)
2. CC1=Cc2c(c(C)cc3c2C(C)COC3(C)C)C(=O)C1=O (configuration not stated)
3. CC1=C2OCC(C)c3ccc(C)c(c32)C(=O)C1=O (configuration not stated)

Outgoing:
["> 5 µg/mL", "2.35 µg/mL", "0.05 µg/mL"]

Form field IC50, entry `Cc1cc2c(c(O)c1O)[C@H](C)CC1=C2[C@@H](C)COC1(C)C` : 1.85 µg/mL

---

Tested on: KB
Experiment: Cytotoxicity against human KB cells by SRB assay
Format: functional, cell-based
# if measured IC50 < 3 µg/mL: Fulfilled  # else: Not fulfilled

For orientation, consider the following solved cases.
Molecule	Category
CC1=CC2=C(C(C)C)C(=O)CC(C)C2=C(O)C1=O (stereo not drawn)	Not fulfilled
COc1c(O)c(C=O)c2c(O)c(-c3c(C)cc4c(C(C)C)c(OC)c(O)c(C=O)c4c3O)c(C)cc2c1C(C)C	Not fulfilled
Cc1cc2c(C(C)C)ccc(C)c2cc1O	Not fulfilled
CC1=C2OCC(C)c3ccc(C)c(c32)C(=O)C1=O (stereo not drawn)	Fulfilled
Cc1cc2c(c(O)c1O)[C@H](C)CC1=C2[C@@H](C)COC1(C)C	Not fulfilled

Incoming: Dear colleague, could you confirm whether IC50 of `Cc1cc2c(C(C)C)c(O)c(O)c(C=O)c2c(O)c1-c1c(C)cc2c(C(C)C)c(O)c(O)c(C=O)c2c1O` falls below 3 µg/mL? Thanks.
Outgoing: Fulfilled

Incoming: Dear colleague, could you confirm whether IC50 of CC1=Cc2c(c(C)cc3c2C(C)CO3)C(=O)C1=O (stereo not drawn) falls below 3 µg/mL? Thanks.
Outgoing: Not fulfilled

---

Test system: Bacillus subtilis
Assay: Antibacterial activity against Bacillus subtilis
Format: functional
Exercise: state measured MIC for each of the molecules provided.
Answers are plain numbers, in µg/mL.

Below: 3 molecules and their reported MIC.
Molecule	Units symbol	MIC
COc1c(O)c(C=O)c2c(O)c(-c3c(C)cc4c(C(C)C)c(OC)c(O)c(C=O)c4c3O)c(C)cc2c1C(C)C	µg/mL	2.34
CC1=Cc2c(c(C)cc3c2C(C)CO3)C(=O)C1=O (configuration not stated)	µg/mL	2.34
Cc1cc2c(c(O)c1O)[C@H](C)CC1=C2[C@@H](C)COC1(C)C	µg/mL	4.69

I'm hoping you can list MIC for every molecule here, please.
1. CC1=C2OCC(C)c3ccc(C)c(c32)C(=O)C1=O (configuration not stated)
2. CC1=Cc2c(c(C)cc3c2C(C)COC3(C)C)C(=O)C1=O (configuration not stated)
3. Cc1cc2c(C(C)C)ccc(C)c2cc1O
4. Cc1cc2c(C(C)C)c(O)c(O)c(C=O)c2c(O)c1-c1c(C)cc2c(C(C)C)c(O)c(O)c(C=O)c2c1O

Outgoing:
4.69
4.69
0.59
1.17
